Molecular target: Histone-lysine N-methyltransferase EHMT2 (Homo sapiens) (UniProt Q96KQ7)
Sequence (Q96KQ7 913-1193 limits assumed): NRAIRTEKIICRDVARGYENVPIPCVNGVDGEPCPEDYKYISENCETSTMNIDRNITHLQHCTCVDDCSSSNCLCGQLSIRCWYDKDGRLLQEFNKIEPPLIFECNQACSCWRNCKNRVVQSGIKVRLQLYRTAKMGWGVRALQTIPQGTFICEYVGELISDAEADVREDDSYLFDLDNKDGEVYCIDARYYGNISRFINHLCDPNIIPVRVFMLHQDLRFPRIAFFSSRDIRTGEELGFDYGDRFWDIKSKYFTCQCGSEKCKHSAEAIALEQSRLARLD
Assay: qHTS Assay for Inhibitors of Histone Lysine Methyltransferase G9a; further: nearly all actives have a fitted effect of over 75% in size; further: potency means the concentration at half of the fitted maximal effect
Details: G9a H3K9 monomethylation, AlphaScreen, 2 h; series mostly up to 59 µM
Out of some 350,000 compounds screened, about 31,000 (8.9%) were called active. Inconclusive results (about 15%) are left out. Many of the other results were omitted from the sample, so actives are more common in it than they were.
attribute.measured: Potency

CCCn1nc(C(=O)NNC(=O)CCOc2ccccc2OCC)c2ccccc2c1=O; inactive
COC(=O)COc1ccc2c(c1C)O/C(=C\c1ccco1)C2=O; 8.91 µM (active)
Cc1cc(C)c(OCC(=O)N/N=C/c2ccco2)c(C)c1; inactive
c1ccc(C2=Nc3cccc4cccc(c34)N2)cc1; 8.91 µM (active)
CCc1nc(C)cn1S(=O)(=O)c1cc([N+](=O)[O-])ccc1Cl; inactive

Now for the compound whose Potency we want.
Which value of Potency has been reported for `COc1cc(Cl)c(S(=O)(=O)n2cnc(C)c2)cc1Cl` in the records?
inactive

Source: PubChem BioAssay AID504332
